meta.source: PubChem BioAssay (NCI)

- System: SR leukemia
- test_description: NCI-60 one-dose screen, 48 h (100 = growth as untreated, 0 = no growth, -100 = all killed)
- measurement_parameters: 10 µM unless noted
This is part of a sample that, as a whole, favours compounds with a hit. Of some 83,000 tested, about 20% had one in any assay.
Parameter: growth. Scope: all listed entries.
Quick note: give the figure in %, leave out the unit.

COc1ccc(C(=O)N2NC(=O)/C(=C/c3cn(-c4ccccc4)nc3-c3ccccc3)N=C2c2ccccc2)cc1    99.9
Cn1cc(-c2cnc3ccc(NC(=O)Nc4ccc(F)c(Br)c4)cc3n2)cn1    34
O=C(Nc1ccncc1)C(=O)c1cn(S(=O)(=O)c2ccc(Br)cc2)c2ccccc12    26.1
COc1c2occc2c(OC)c2c(=O)c(-c3cc(-c4ccc(F)cc4)c(C#N)c(N)n3)c(C)oc12    15.5

Turning now to a further compound:
Form field: reported growth of CN(C)CCOC(=O)Nc1ccccc1Cl
104

###

- Tested on: SN12C renal
- test_description: NCI-60 one-dose screen, 48 h
- measurement_parameters: 10 µM unless noted
About 83,000 compounds went through this panel and 20% of them were active in at least one assay; those are over-represented in the sample as a whole. Activity calls are given as the source filed them. The calls were made as follows: active = growth percent below 10; inactive = the rest.
Hi there, use one of these labels in your reply, thanks! active, inactive

Some solved cases for reference:
CC(C)(C)n1cc(-c2ccnc(NCCCNS(=O)(=O)c3ccc(C(F)(F)F)cc3)c2)c(-c2cccc(O)c2)n1    inactive
Cc1ccc(C(=O)C2=Cc3cc4ccccc4n3Cc3cnnn32)cc1    inactive
CCC(C)/C(=C\C#N)NCCCN/C(=C/C#N)C(C)CC (stereo unspecified)    inactive
CN(C)CC(C(=O)c1ccccc1)c1ccccc1 (stereo unspecified)    inactive
CCOC(=O)c1ccc(NC(=O)N2CC(C)OC(C)C2)cc1 (stereo unspecified)    inactive
Cn1c(=O)c2[nH]c(C3CC=CCC3)nc2n(C)c1=O (stereo unspecified)    inactive

Outcome logged for O=S(=O)(NCCCNc1nccc(-n2ccc3cccnc32)n1)c1ccc(Br)cc1 in this assay:
inactive

Also COc1cc(/C=C/C(=O)c2c(C)nc3ccccc3c2C)ccc1OCCCCOc1cc2c(cc1OC)C(=O)N1CCC[C@H]1C=N2 , if possible.
active

Field entry: CCCCOc1ccc(/C=C2/SC(N3CCCC3)=NC2=O)cc1
inactive

Same lookup for OC(c1cc2cc(Br)ccc2c2cc(Br)ccc12)C1CCCCN1 (stereo unspecified) , please.
active

###

- Tested on: OVCAR-4 ovarian
- test_description: NCI-60 one-dose screen, 48 h
- measurement_parameters: 10 µM unless noted
Compounds without any hit were thinned out: in the full panel of roughly 83,000, 20% have a hit. The source made the active and inactive calls. Rule for the calls: active = growth percent below 10; inactive = the rest.
Write down the outcome that applies. Available outcomes: active, inactive

// below: answered compounds
NNc1cccc(/C=C/c2ccccc2)cc1=O    inactive
O=S(=O)(NCCNc1nccc(-c2c(-c3ccc(O)cc3)nc3sccn23)n1)c1cccc2ccccc12    inactive
OCCCCCCNc1ncnc2cc(Cl)ccc12    inactive

Recorded call for COc1ccc(/C=N\NC(=O)CN2CCN(c3cc4c(cc3F)c(=O)c(C(=O)N/N=C/c3ccc(OC)c(OC)c3)cn4C3CC3)CC2)cc1OC ?
active

Would you kindly repeat that for Cn1c(=O)c2[nH]c(C3CC=CCC3)nc2n(C)c1=O (configuration not stated) ?
inactive

###

- System: MALME-3M melanoma
- test_description: NCI-60 one-dose screen, 48 h
- measurement_parameters: 10 µM unless noted
The panel holds about 83,000 compounds, 20% with a hit somewhere; the sample as a whole holds those more often. Activity calls are given as the source filed them. The calls were made as follows: active = growth percent below 10; inactive = the rest.
// classify into label 1 for active, label 0 for inactive

Consider the following illustrative entries.
O=[N+]([O-])c1cc(Cl)c2[nH]c3c(Cl)cc([N+](=O)[O-])cc3c2c1    label 1
Cc1cc(N/N=C/c2nc(-c3ccccc3)oc2C)c2cc(Br)ccc2n1    label 0
O=C(O)/C=C/C(=O)c1ccc(Cl)cc1    label 0
CN(CCCCN(C[C@H]1Cc2ncccc2CN1)[C@H]1CCCc2cccnc21)C1CCC(F)(F)CC1    label 0

For the next question, use this compound.
Hi team, can someone confirm the assay call for CCN(CC)CCCC(C)Nc1c2ccc(Cl)cc2nc2cc(OC)c(OC)cc12 (stereo not given) ?
label 1

###

- Tested on: OVCAR-3 ovarian
- test_description: NCI-60 one-dose screen, 48 h
- measurement_parameters: 10 µM unless noted
The panel holds about 83,000 compounds, 20% with a hit somewhere; the sample as a whole holds those more often. Calls of active or inactive are those of the source. How the source made its calls: active means growth percent below 10; inactive means the rest.
Allowed answers: active, inactive

Short answer needed: outcome of this test for CC(C)(C)n1cc(-c2ccnc(NCCCNS(=O)(=O)c3cccc(F)c3)c2)c(-c2cccc(O)c2)n1 ?
inactive

Here is the next compound: OB(O)c1cccc(-c2nc3ccc4[nH]ncc4c3c3c2CCCC3)c1F
inactive

Field entry: Cc1cc(C2=NNC(=O)Cc3cc4c(cc32)OCCO4)cc(C)c1N
active

Then COc1ccc(S(=O)(=O)n2cc(C(=O)C(=O)Nc3ccncc3)c3ccccc32)cc1F ?
inactive

// same read-out, input: CCN(CC)c1ccc(CNc2ccnc3ccccc23)cc1
inactive

###

Below, each entry is listed alongside its reported growth.
- System: IGROV1 ovarian
- test_description: NCI-60 one-dose screen, 48 h (100 = growth as untreated, 0 = no growth, -100 = all killed)
- measurement_parameters: 10 µM unless noted
The panel holds about 83,000 compounds, 20% with a hit somewhere; the sample as a whole holds those more often. Calls of active or inactive are those of the source. Rule for the calls: active = growth percent below 10; inactive = the rest.

growth lookup needed for O=c1[nH]c(-c2ccccc2)nc(CN2CCCCC2)c1O , thanks.
128% (inactive)

Try COc1ccc2c(c1)[nH]c(=O)c1c3cc(OC)ccc3cn21 next.
16.8% (inactive)

Here is the next compound: COc1ccc2cc(-c3ccc(-c4ccc(C(=N)N)cc4)s3)ccc2c1
69.6% (inactive)

What do you have for Fc1ccc(-c2nc(-c3nc4ncccc4[nH]3)cc3c2[nH]c2ccccc23)cc1F ?
62.3% (inactive)

CCOC(=O)c1cn2c3c(cccc3c1=O)C(=O)/C(=C/c1cccc(Cl)c1Cl)C2 , same question.
99.7% (inactive)

Now give it for O=Nc1c(-c2cccc([N+](=O)[O-])c2)nc2ncccn12 too.
40.5% (inactive)

// same read-out, input: N#Cc1c(Nc2ccccc2)nc2n(c1=O)-c1ccccc1Sc1ccccc1-2
64.1% (inactive)

Then what about the compound Cc1[nH]c2ccc(F)cc2c1CCNC(=O)C1CCN(C(=O)c2ccccc2)C1 (configuration not stated) ?
90.4% [25 µM] (inactive)

What do you have for O=C(c1c[nH]c(=O)c(-c2ccccc2)c1)c1ccccc1O ?
82.7% (inactive)

// next record COc1cccc(-c2cc3c(O)cc(C#N)cc3[nH]2)c1
103% (inactive)

Entry Cc1ccc(S(=O)(=O)NCCNc2nccc(-c3c(-c4cccc(N)c4)nc4sccn34)n2)cc1 please
86.6% (inactive)

Note, next up: N/C(=N\S(=O)(=O)c1ccccc1)Nc1nc2ccccc2s1
90.8% (inactive)

Would you kindly repeat that for COc1ccc(C(=O)N2NC(=O)/C(=C/c3ccc(F)cc3)N=C2c2ccccc2)cc1 ?
99% (inactive)

Proceed to CC(C)C1=CC2=C(C=O)C[C@@H]3[C@](C)(CCC[C@@]3(C)C(=O)OCC#CCN3CCCC3)[C@H]2CC1
75.4% (inactive)

Note, next up: CCN(CC)CCOc1ccc(Cl)c(C)c1
99.6% (inactive)

Now the same for COc1ccc(S(=O)(=O)n2ccc(-c3ccc4c(c3)CCC(C)(C)O4)n2)cc1OC
84.3% (inactive)

Next: CC(C)CC1NC(C)(C)CO1 (configuration not stated)
112% (inactive)

# repeat for Cc1ccc(CSC(=N)N)cc1C
106% (inactive)

###

- Test system: SN12C renal
- test_description: NCI-60 one-dose screen, 48 h (100 = growth as untreated, 0 = no growth, -100 = all killed)
- measurement_parameters: 10 µM unless noted
About 83,000 compounds went through this panel and 20% of them were active in at least one assay; those are over-represented in the sample as a whole.
Known growth of a selection of compounds
Field format: number, assumed %, no unit text.

CC(C)CSc1nc(NN)c(C#N)c(-c2ccccc2)n1    104
COc1ccc(C(=O)n2nc(/C=C/c3ccc(O)c(OC)c3)cc2/C=C/c2ccc(O)c(OC)c2)cc1    12.8
O=C(Nc1ccc2c(c1)OCO2)C(=O)c1c[nH]c2cc(F)ccc12    79.5
COc1ccc(/C=C/c2c(C(C)=O)c(C)nc3ccccc23)cc1    85.6
S=C(S)NCCc1c[nH]c2ccccc12    91.8

Requested read-out growth, target or system SN12C renal, entry CC(=O)Nc1ccc(/C=C/C(=O)c2ccccc2)cc1
87.5

Now consider C=C1CCC2C3(C)COC(c4c(OC)cccc4OC)OC3CCC2(C)C1C/C=C1/C(=O)OCC1O (stereo not given) .
28.2

# repeat for O=C1Nc2ccc3c(c2/C1=C\c1cc2c(cc1Br)OCO2)OCO3
26.7

Another: COc1cccc(-c2nc3sccn3c2-c2ccnc(NCCCNS(=O)(=O)c3ccc(C(F)(F)F)cc3)c2)c1
47.9

Also Cc1ccc(S(=O)(=O)NCCNc2nccc(-c3c(-c4cccc(N)c4)nc4sccn34)n2)cc1 , if possible.
81
